Biological target: Follicle Stimulating Hormone Receptor (FSHR) (Homo sapiens, UniProt P23945)
Construct: HA (N); expressed in transfected cells; host or cells: CHO-K1, transient transfection, pHM6 vector (CMV promoter)
Sequence (P23945 18-695): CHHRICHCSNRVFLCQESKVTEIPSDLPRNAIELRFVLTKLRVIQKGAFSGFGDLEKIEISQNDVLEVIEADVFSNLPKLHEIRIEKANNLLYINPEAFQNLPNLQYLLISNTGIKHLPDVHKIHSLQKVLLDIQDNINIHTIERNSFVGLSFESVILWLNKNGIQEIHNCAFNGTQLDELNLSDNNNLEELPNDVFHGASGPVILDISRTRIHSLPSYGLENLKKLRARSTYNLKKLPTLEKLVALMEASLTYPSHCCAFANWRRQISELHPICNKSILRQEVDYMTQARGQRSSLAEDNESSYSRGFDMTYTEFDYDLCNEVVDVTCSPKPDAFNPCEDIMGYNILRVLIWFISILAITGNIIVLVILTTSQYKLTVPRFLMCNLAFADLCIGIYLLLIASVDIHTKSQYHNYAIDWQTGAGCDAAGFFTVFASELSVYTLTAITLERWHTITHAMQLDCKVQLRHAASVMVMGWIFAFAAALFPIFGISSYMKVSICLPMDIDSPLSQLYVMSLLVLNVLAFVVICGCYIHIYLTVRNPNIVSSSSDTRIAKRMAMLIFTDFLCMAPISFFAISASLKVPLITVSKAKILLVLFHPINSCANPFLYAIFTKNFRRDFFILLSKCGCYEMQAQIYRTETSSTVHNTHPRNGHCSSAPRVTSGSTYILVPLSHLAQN
Test: HTRF cAMP agonist assay, FSHR, transiently transfected CHO-K1 cells
Type: cell-based
Conditions: CHO-K1 cells transiently expressing human FSHR, read-out: IC50 FSHR LANCE CAMP
Method: Example 17. HTRF cAMP Agonist Assay Protocol (for FSHR, TSHR, LHCGR) […] Example FSHR Modulator compounds were diluted in assay buffer (PBS^+/+, 0.05% BSA Sigma-Aldrich A3059, 500 μM IBMX Sigma-Aldrich 15879) to 3.5× the final assay concentration. […] Plates were read on an Envision plate reader following PerkinElmer guidelines. Raw data for all assays was transmitted directly from plate readers into a database for processing. […]
pIC50: −log10 of the molar value.
measured parameter: pIC50

Below, each entry is followed by its recorded pIC50 result.
compound	pIC50
COc1cc2c(cc1-c1cncc(C(N)=O)c1)-c1c(c(C(=O)N3CCNC(=O)C34CC4)nn1-c1cc(Cl)cc(Cl)c1)CC2 [Compound 8-89]	7.72
COc1cc2c(cc1-c1cncc(C(N)=O)c1)-c1c(c(C(=O)N3C[C@@H]4C[C@H]3CO4)nn1-c1cc(Cl)cc(Cl)c1)CC2 [Compound 8-29]	7.56
COc1cc2c(cc1-c1cncc(C(N)=O)c1)-c1c(c(C(=O)NC(C)CO)nn1-c1cc(Cl)cc(Cl)c1)CC2 (stereo not shown) [Compound 8-54A]	6.65
COc1cc2c(cc1-c1cncc(C(N)=O)c1)-c1c(c(C(=O)N3CCCNCC3(C)C)nn1-c1cc(Cl)cc(Cl)c1)CC2 [Compound 8-04]	7.55
COc1cc2c(cc1Br)-c1c(c(C(=O)N3CCOCC3(C)C)nn1-c1cc(Cl)cc(Cl)c1)CC2 [Compound 6-01A]	5.96

1. COc1cc2c(cc1-c1cncc(C(N)=O)c1)-c1c(c(C(=O)N3CCOCC3(C)C)nn1-c1cc(F)cc(F)c1)CC2 [Compound 9-18]
2. CCN(C)C(=O)c1nn(-c2cc(Cl)cc(Cl)c2)c2c1CCc1cc(OC)c(-c3cncc(C(N)=O)c3)cc1-2 [Compound 8-34]
3. COc1cc2c(cc1-c1cncc(C(N)=O)c1)-c1c(c(C(=O)N3C4CNCC3C4)nn1-c1cc(Cl)cc(Cl)c1)CC2 [Compound 8-16B]
4. COc1cc2c(cc1-c1cncc(C(N)=O)c1)-c1c(c(C(=O)N3CCN(CCN)C(=O)C3(C)C)nn1-c1cc(Cl)cc(Cl)c1)CC2 [Compound 8-71]
// query Please produce an ascending ranking of these compounds based on pIC50. Your answer should be the labels, listed in the requested order.
// result 4, 3, 2, 1
(4: 5.43, 3: 6.11, 2: 7.87, 1: 9.21)

----------
Target: Follicle Stimulating Hormone Receptor (FSHR) (Homo sapiens, UniProt P23945)
Construct: HA (N)
Assay: HTRF cAMP agonist assay, FSHR, transiently transfected CHO-K1 cells
Conditions: CHO-K1 cells transiently expressing human FSHR, read-out: IC50 FSHR LANCE CAMP
Protocol: Example 17. HTRF cAMP Agonist Assay Protocol (for FSHR, TSHR, LHCGR) […] Example FSHR Modulator compounds were diluted in assay buffer (PBS^+/+, 0.05% BSA Sigma-Aldrich A3059, 500 μM IBMX Sigma-Aldrich 15879) to 3.5× the final assay concentration. […] Plates were read on an Envision plate reader following PerkinElmer guidelines. Raw data for all assays was transmitted directly from plate readers into a database for processing. […]
pIC50: −log10 of the molar value.
measured parameter: pIC50

Consider the worked cases shown below.
molecule	pIC50
COc1cc2c(cc1-c1cncc(C(N)=O)c1)-c1c(c(C(=O)N3CCOCC3(C)C)nn1-c1ccncc1)CC2	6.72
COc1cc2c(cc1-c1cncc(C#N)c1)-c1c(c(C(=O)N3CCCN(C)CC3)nn1-c1cc(Cl)cc(Cl)c1)CC2 [Compound 8-07A]	5.52
COc1cc2c(cc1-c1cncc(C(N)=O)c1)-c1c(c(C(=O)N3CCC(O)C3(C)C)nn1-c1cc(Cl)cc(Cl)c1)CC2 (centres unmarked) [Compound 8-90A]	8.67

1. COc1cc2c(cc1-c1cncc(C(N)=O)c1)-c1c(c(C(=O)N3CCN(C)CC3C)nn1-c1cc(Cl)cc(Cl)c1)CC2 (centres unmarked)
2. COc1cc2c(cc1-c1cncc(C(N)=O)c1)-c1c(c(C(=O)N3CCC4C3CCN4C)nn1-c1cc(Cl)cc(Cl)c1)CC2 (centres unmarked)
// query Kindly identify which of 1 and 2 has the larger recorded pIC50 value. Response format: the label of the selected entry.
// result 1
(1: 7.22, 2: 5.75)

----------
Molecular target: Follicle Stimulating Hormone Receptor (FSHR) (Homo sapiens)
Construct: HA (N)
Experiment: HTRF cAMP agonist assay, FSHR, transiently transfected CHO-K1 cells
Details: CHO-K1 cells transiently expressing human FSHR, read-out: IC50 FSHR LANCE CAMP
measured parameter: IC50 (µM)

molecule	assayed target	IC50, µM
COc1cc2c(cc1-c1cncc(C(N)=O)c1)-c1c(c(C(=O)N3CCCC3)nn1-c1cc(Cl)cc(Cl)c1)CC2	Follicle Stimulating Hormone Receptor (FSHR) (Homo sapiens)	0.0484
COc1cc2c(cc1-c1cncc(C(N)=O)c1)-c1c(c(C(=O)N3CCCC3C)nn1-c1cc(Cl)cc(Cl)c1)CC2 (stereo not shown)	Follicle Stimulating Hormone Receptor (FSHR) (Homo sapiens)	0.00916
COc1cc2c(cc1-c1cncc(C(N)=O)c1)-c1c(c(C(=O)N3[C@H](C)CNC[C@@H]3C)nn1-c1cc(Cl)cc(Cl)c1)SC2	Follicle Stimulating Hormone Receptor (FSHR) (Homo sapiens)	0.00498

1. COc1cc2c(cc1-c1cncc(C(N)=O)c1)-c1c(c(C(=O)N3CCOCC3(C)C)nn1C(C)C)CC2
2. COc1cc2c(cc1-c1cncc(C(N)=O)c1)-c1c(c(C(=O)N3CCOCC3(C)C)nn1C1CCCCC1)CC2
// query Pick one: 1 or 2 . Which one has the lower reported IC50? In your reply, give the label of the chosen option.
// result 2

1. COc1cc2c(cc1-c1cncc(C(N)=O)c1)-c1c(c(C(=O)N3CC4CC(C3)N4)nn1-c1cc(Cl)cc(Cl)c1)CC2
2. COc1cc2c(cc1-c1cncc(C#N)c1)-c1c(c(C(=O)N(C)C(C)(C)C)nn1-c1cc(Cl)cc(Cl)c1)CC2 [Compound 6-02B]
// query When the recorded IC50 values are compared, which is smaller: that of 1 or that of 2 ? Record your answer as the label of the chosen record.
// result 2
(2: 0.0319 µM, 1: 0.453 µM)

P. COc1cc2c(cc1-c1cncc(C(N)=O)c1)-c1c(c(C(=O)N3CCNC(=O)C3(C)C)nn1-c1cc(Cl)cc(Cl)c1)OC2
Q. COc1cc2c(cc1-c1cncc(C(N)=O)c1)-c1c(c(C(=O)N(C)C(C)(C)C)nn1-c1ccsc1)OC2
R. COc1cc2c(cc1-c1ccn(C)n1)-c1c(c(C(=O)N3CCOCC3(C)C)nn1-c1ccsc1)OC2
S. COc1cc2c(cc1-c1cncc(C(N)=O)c1)-c1c(c(C(=O)N3CC4CC3CN4C(=O)OC(C)(C)C)nn1-c1cc(Cl)cc(Cl)c1)CC2 (stereo not shown) [Compound 8-33A]
T. CCCCn1nc(C(=O)N2CCOCC2(C)C)c2c1-c1cc(-c3cncc(C(N)=O)c3)c(OC)cc1CC2
// query Rank ascending by IC50. Answer format: list of labels, ordered as asked.
// result Q, T, P, S, R

----------
Target: Follicle Stimulating Hormone Receptor (FSHR) (Homo sapiens, UniProt P23945)
Construct: HA (N)
Assay: HTRF cAMP agonist assay, FSHR, transiently transfected CHO-K1 cells
Details: CHO-K1 cells transiently expressing human FSHR, read-out: IC50 FSHR LANCE CAMP
pIC50: −log10 of the molar value.
measured parameter: pIC50

A selection of reference data follows.
compound	pIC50
COc1cc2c(cc1-c1cncc(C#N)c1)-c1c(c(C(=O)N3CCOCC3(C)C)nn1-c1cc(Cl)cc(Cl)c1)CC2 [Compound 6-01B]	7.48
COc1cc2c(cc1-c1cncc(C(N)=O)c1)-c1c(c(C(=O)N(C)C(C)C)nn1-c1cc(Cl)cc(Cl)c1)CC2 [Compound 8-36]	8.38
COc1cc2c(cc1-c1cncc(C(N)=O)c1)-c1c(c(C(=O)N(C)C(C)(C)C)nn1-c1cc(Cl)cc(Cl)c1)C2 [Compound 5-02]	6.71
COc1cc2c(cc1-c1cncc(C(N)=O)c1)-c1c(c(C(=O)N3CCOC[C@@H]3C)nn1-c1cc(Cl)cc(Cl)c1)CC2 [Compound 8-43]	8.59

A. COc1cc2c(cc1-c1cncc(C(N)=O)c1)-c1c(c(C(=O)N3CCN(C(C)C)CC3(C)C)nn1-c1cc(Cl)cc(Cl)c1)CC2 [Compound 8-61]
B. COc1cc2c(cc1-c1cncc(C(N)=O)c1)-c1c(c(C(=O)N3CCOCC3(C)C)nn1-c1ccncn1)CC2 [Compound 10-10]
// query Hi team, can someone confirm which has the larger pIC50: A or B ? Thanks. Lab note: record the label of whichever item you select.
// result B
(B: 7.83, A: 6.72)

Origin of values: patent US20260008783A1
